B1: CAMK2B (parent)
chain: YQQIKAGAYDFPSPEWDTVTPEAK

# Variants of: B1
# METHOD DESCRIPTION: protein stability index of a GFP-peptide fusion (GPS, HEK-293T) (PSI 1-6); higher = more stable;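 also: lentivirally expressed fusions sorted by FACS into six bins by GFP to DsRed ratio, PSI derived from sequencing read proportions per bin multiplied by bin number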
# CONDITION NOTES: c terminus: a fixed tail appended
METRIC NAME: protein stability index
# respond with the number and nothing more

query: Please look up its protein stability index: A6H
result: 3.24

query: # input variant: I4S ; wanted: its protein stability index
result: 3.02

query: Sample T18K — what was its protein stability index?
result: 3.87

query: For the variant E22D , what protein stability index is on record?
result: 3.89

query: Which protein stability index value belongs to T20L ?
result: 3.15

query: Find the recorded protein stability index belonging to K5V and report it.
result: 3.77

query: Which protein stability index reading was recorded for the variant P12F ?
result: 2.25

query: Which protein stability index reading was recorded for the variant T20Y ?
result: 3.06

query: Please look up its protein stability index: F11R
result: 3.73

query: Find the recorded protein stability index belonging to Y1R and report it.
result: 4.83

query: Field request: protein stability index | item: Y9C
result: 3.79

query: Which protein stability index reading was recorded for the variant A6R ?
result: 2.38

query: Query (variant): Q3L ; field requested: protein stability index
result: 3.38

query: Looking for the measured protein stability index of Q3A , can you help?
result: 2.11

query: Param item = Q3C ; retrieve measured protein stability index.
result: 2.17

query: What value of protein stability index has been recorded for this entry: Y1L
result: 4.75

query: Bench note: what protein stability index did E15T show?
result: 2.67

query: Param item = G7Q ; retrieve measured protein stability index.
result: 3.92

query: Request the reported protein stability index associated with D17M
result: 2.6

query: Which protein stability index is listed for S13G ?
result: 4.11

query: Which protein stability index is listed for I4N ?
result: 3.41

query: Which measured protein stability index value corresponds to T20C ?
result: 3.51

query: Given the entry E15Q , report its measured protein stability index.
result: 3.44

query: Given the entry E22G , report its measured protein stability index.
result: 3.27

query: Returns the measured protein stability index for the input variant. Input: V19S
result: 3.59

query: So what does the record say about protein stability index for D17V ?
result: 2.3

query: For the variant Q2D , what protein stability index is on record?
result: 4.78

query: Please look up its protein stability index: E15D
result: 3.86

query: Tell me the measured protein stability index of E15V , please.
result: 2.55

query: Name the recorded protein stability index for P14Y .
result: 2.89

query: Value lookup for protein stability index; key = T18A
result: 3.69

query: protein stability index for K5M ?
result: 4.04

query: Requested read-out: protein stability index. Entry: E22L
result: 2.98

query: Recorded protein stability index of P21R , please.
result: 3.2

query: Could you tell me which protein stability index is on file for G7T ?
result: 3.83

query: Name the recorded protein stability index for A6K .
result: 3.22

query: State the recorded protein stability index for this entry: A8S
result: 3.75

query: Recorded protein stability index for Q2N , please?
result: 4.51

query: For I4Q , what is its reported protein stability index?
result: 3.78

query: Report protein stability index for G7M please.
result: 3.23

query: What value of measured protein stability index is listed for A8V ?
result: 3.16

query: Entry D17H : reported protein stability index = ?
result: 2.85

query: So what does the record say about protein stability index for Y9N ?
result: 4.26

query: Quick check: protein stability index of V19D ?
result: 4.23

query: Any idea what protein stability index was measured for V19E ?
result: 3.8

query: Given the variant Y9I , what is its reported protein stability index?
result: 3.9

query: Requested field: protein stability index. Item: T18I
result: 3.06

query: Return reported protein stability index; argument: T20M
result: 3.16

query: Query: protein stability index; subject: D17A
result: 3.25

query: # get_value(readout='protein stability index', item= T18P )
result: 3.82

query: Any idea what protein stability index was measured for E22V ?
result: 2.82

query: I am curious: what protein stability index value has been reported for E15I ?
result: 2.53

query: Can you share its protein stability index? I mean this variant: D10C
result: 2.25

query: Item under review: E15Y . Reported protein stability index?
result: 1.99

query: # get_value(readout='protein stability index', item= T18H )
result: 3.63

query: Which protein stability index is reported for this variant? S13C
result: 2.74

query: If you can, please state the reported protein stability index value of D17S .
result: 2.77

query: Returns the measured protein stability index for the input variant. Input: E15L
result: 2.52

query: # input variant: S13N ; wanted: its protein stability index
result: 3.69

query: Consider the variant E22F and give its measured protein stability index.
result: 2.3

query: Form field: reported protein stability index of G7V
result: 3.53

query: Return reported protein stability index; argument: D10P
result: 2.7

query: I am curious: what protein stability index value has been reported for T20S ?
result: 3.74

query: // returns reported protein stability index for input P14F
result: 2.67

query: Data request, read-out protein stability index, for K24F
result: 2.71

query: Returns the measured protein stability index for the input variant. Input: Y9P
result: 4.17

The reported numbers originate from the supplement of paper PMC10567573.
